experimental_system: SARS-CoV-2 euvirus S protein (SARS-CoV-2, UniProt P0DTC2 14-1273)
test_protocol: cell-based or functional assay
reported_metric: EC50, neutralization of SARS-CoV-2 euvirus infection of VERO-E6 cells (CPE, day 4) (ng/mL)
One number for each entry, in ng/mL.

Hello, please tell me recorded EC50, neutralization of SARS-CoV-2 euvirus infection of VERO-E6 cells (CPE, day 4) for this one: P5-22 (antibody, V domains shown, also called candidate antibody molecule P5-22) VH: EVQLVESGGGLVKPGGSLRLSCAASGFTFRDYDIIWIRQAPGKGLEWVSYISRSGSTIYYSDSVRGRFTISRDNAKNSVYLQMNSLRAEDTAVYYCARDFGFEGPRMDVWGQGTTVTVSS VL: DIQMTQSPSSLSASVGDRVTITCQASQDIKNYLNWYQQKPGKAPKLLIYDASNLETGVPSRFSGSGSGTDFTFTISSLQPEDIATYYCQQFDNLPITFGQGTRLEIK
6.57
